Where do the numbers come from? From ChEMBL document CHEMBL5150016.

# System: Hepatitis B virus
# assay_info: Antiviral activity against HBV infected human HepG2-hNTCP cells assessed as reduction of HBV DNA level preincubated for 3 hrs followed by viral infection for 16 hrs further compound washout and measured 6 days post infection by qPCR analysis
# Assay type: functional, organism-based
assay_endpoint: IC50 (µM)
Unit µM implied. Number only.

Q: I'd like to know its IC50. The compound in question is `Cc1cc(OCCCS(C)(=O)=O)cc(C)c1-c1cccc(COc2ccc3c(c2)OC[C@H]3CC(=O)O)c1`
Ans: 30

====

# Test system: Hepatitis B virus
# assay_info: Antiviral activity against HBV infected HepG2 2.2.15 cells assessed as reduction in HBsAg level at 50 microg/ml for 48 hrs by ELISA
# Assay type: functional, organism-based
# measurement_setup: Hepatitis B virus, HepG2 2.2.15, 48 h
assay_endpoint: pIC50
pIC50 is a log-scale quantity: -log10 of the concentration expressed in molar.

Q: Could you share what pIC50 was measured for CN(CCOc1ccc(CC2SC(=O)NC2=O)cc1)c1ccccn1 (stereo unspecified) , tested on Hepatitis B virus?
Ans: 5.29

====

# system_tested: Hepatic sodium/bile acid cotransporter (Homo sapiens)
# Sequence (Q14973 whole entry, the tested form may be a part): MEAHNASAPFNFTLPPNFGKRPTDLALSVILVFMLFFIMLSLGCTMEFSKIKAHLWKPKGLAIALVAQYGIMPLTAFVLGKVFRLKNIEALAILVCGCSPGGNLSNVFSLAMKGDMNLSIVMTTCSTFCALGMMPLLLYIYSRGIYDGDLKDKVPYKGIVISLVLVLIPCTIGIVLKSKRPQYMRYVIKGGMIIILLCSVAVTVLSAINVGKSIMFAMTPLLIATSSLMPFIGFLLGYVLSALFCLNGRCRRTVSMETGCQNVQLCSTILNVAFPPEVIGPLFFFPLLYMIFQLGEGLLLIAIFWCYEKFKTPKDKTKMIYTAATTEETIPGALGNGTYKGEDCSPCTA
# assay_info: Inhibition of human NTCP mediated TCA uptake in HepG2-hNTCP cells incubated for 15 mins using [3H] taurocholic acid as substrate by liquid scintillation counter analysis
# Format: cell-based
assay_endpoint: pIC50
By convention, pIC50 is the negative base-10 log of a molar concentration.

Past entries and their recorded results:
Q: pIC50 for CCCCCCc1cc2ccc(OCC(=O)NC(CCSC)C(=O)O)cc2oc1=O (centres undefined) ?
Ans: 4.75

Q: Returns the measured pIC50 for the input molecule. Input: Cc1c(Cc2ccccc2)c(=O)oc2cc(OCC(=O)NC(CSCc3ccccc3)C(=O)O)ccc12 (centres undefined)
Ans: 4.88

Q: Requested read-out: pIC50. Entry: CCCCCCc1c(C)c2ccc(OCC(=O)NC(Cc3ccccc3)C(=O)O)cc2oc1=O (centres undefined)
Ans: 4.90

Okay, now this molecule:
Q: What value of measured pIC50 is listed for Cc1c(OCC(=O)NC(CSCc2ccccc2)C(=O)O)ccc2c3c(c(=O)oc12)CCCC3 (centres undefined) ?
Ans: 4.79

====

# system_tested: Hepatic sodium/bile acid cotransporter (Homo sapiens)
# assay_info: Inhibition of HBV subgenotype D3 [3H]-myr-preS1 (2 to 48 residues) peptide binding to human NTCP in HEK293 cells preincubated for 5 mins followed by substrate addition and measured after 10 mins using by microplate scintillation counter analysis
# Assay type: cell-based
Catalogue of molecules with associated pIC50
Just so you know, pIC50 here is -log10 of the concentration in molar units; reply with that number alone.

Q: Looking for the measured pIC50 of `C=C(C)[C@@H]1CC[C@]2(/C=N/O)CC[C@]3(C)[C@H](CC[C@@H]4[C@@]5(C)CC[C@H](O)C(C)(C)[C@@H]5CC[C@]43C)[C@@H]12` , can you help?
Ans: 4.96

Q: # pIC50 lookup, item `O[C@H](c1ccc([C@@H](O)[C@@H](c2ccccn2)[C@H](Nc2ccccn2)c2ccccc2)cc1)[C@@H](c1ccccn1)[C@H](Nc1ccccn1)c1ccccc1`
Ans: 5.19

Q: Fill in: pIC50 of `O=Cc1cccc([C@@H]([C@H](Nc2ccccn2)c2ccccc2)[C@@H](O)c2ccccc2)n1` is ___
Ans: 4.80

Consider the additional molecule presented here.
Q: Item `C=C(CO)[C@@H]1CC[C@]2(COC(C)=O)CC[C@]3(C)[C@H](CC[C@@H]4[C@@]5(C)CC[C@H](OC(C)=O)C(C)(C)[C@@H]5CC[C@]43C)[C@@H]12` has what recorded pIC50?
Ans: 5.10
